Endpoint Name: melting point

The following compounds have reported results that may help.
{"Mol Smiles": "CCCC[Si](C)(C)CCSCCNC(=O)n1cc(F)c(=O)[nH]c1=O", "melting point": "71 to 72 °C"}
{"Mol Smiles": "CN1CCC2(CC1)c1ccccc1Oc1c(N)cccc12", "melting point": "173 to 174 °C"}
{"Mol Smiles": "COCCNC(=O)c1cc(F)cc(-c2cccc3c(C)c(Cc4cccc(C(F)(F)F)c4)sc23)c1", "melting point": "124 to 126 °C"}

Pending compound:
melting point in this record for `COc1ccc(-c2c3c(cc4ccc5c(c24)OCO5)C(=O)OC3)cc1` : 217 to 219 °C

====

This listing pairs compounds with measured melting point.

Examples from the recorded data:
{"Compound": "C#CCN1C(=O)C2(CCCC2)c2ccccc21", "Endpoint Name": "melting point", "Reading": "109 to 111 °C"}
{"Compound": "CC(C)(C)OC(=O)N1CCC(c2ccc(N3C[C@H](CN=[N+]=[N-])OC3=O)cc2F)CC1", "Endpoint Name": "melting point", "Reading": "109 to 110 °C"}

The recorded melting point for entry `Oc1ccc(-c2ccc(O)cc2C#Cc2ccccc2)c(C#Cc2ccccc2)c1` equals 187 °C

CC(C)(C)C1CCC(C2=C(O)C(=O)c3ccccc3C2=O)CC1 (stereo unspecified) has a reported melting point of 123 to 126 °C

====

Endpoint Name: melting point

Worked examples follow.
{"Compound": "COC(=O)c1cc(C23CC4CC(CC(C4)C2)C3)c(O)cc1O", "melting point": "167 to 169 °C"}
{"Compound": "O=C(CCN1CCNCC1)Nc1ccc2c(c1)C(=O)c1cc(NC(=O)CCN3CCNCC3)ccc1C2=O", "melting point": "218 °C"}
{"Compound": "Fc1ccccc1NC(=S)Nc1ncccc1OCc1c(F)cccc1Cl", "melting point": "145 to 147 °C"}
{"Compound": "CC(C)n1nc(-c2c(OCCN3C(=O)c4ccccc4C3=O)nc(N)nc2-c2ccccc2)ccc1=O", "melting point": "232 °C"}
{"Compound": "CC(=O)SCC(Cc1ccccc1)C(=O)Nc1cccc(C(=O)OCCBr)c1 (centres undefined)", "melting point": "85 to 88 °C"}

Sure, the documented melting point for `C=CCSc1ccc(Oc2ccccc2C)nn1` is 78 to 80 °C

====

Below: a set of entries, each annotated with reported melting point.

Some entries whose results are on file:
{"Compound": "NC(=O)[C@@H]1[C@H](Nc2c(Br)cnc3[nH]c(-c4cccnc4N4CCCC4)nc23)[C@H]2C=C[C@@H]1C2", "melting point": "190 °C"}
{"Compound": "COc1ccc(-c2ccc(C=C3SC(=O)NC3=O)cc2)cc1C12CC3CC(CC(C3)C1)C2", "melting point": "304 to 306 °C"}
{"Compound": "COC(=O)Nc1ccc(OCCn2ccnc2)cc1", "melting point": "152 to 153 °C"}
{"Compound": "O=Cc1cc([N+](=O)[O-])cc(O)c1O", "melting point": "226 to 228 °C"}
{"Compound": "COc1ccc(CC2NCCCC2C(C)O)cc1 (stereo unspecified)", "melting point": "> 300 °C"}

`CCOC(=O)COc1cc(C(=O)Oc2ccc([N+](=O)[O-])cc2)c(O)c2ccccc12` has a reported melting point of 165 to 167 °C

The recorded melting point for entry `COc1ccc(-c2nc(C(=O)N3CCOCC3)sc2-c2ccc(OC)cc2)cc1` equals 118 to 122 °C

melting point for `COC(=O)c1c(-c2ccccc2F)c2cc(OCc3ccccc3)ccc2c(=O)n1CC(C)C` is 106 to 107 °C

Lab book: melting point of `CN(C)C(=O)Nc1ccc(CN2OCC(C)(C)C2=O)c(Cl)c1` noted as 145 to 147 °C

Value of melting point reported for the compound `O=C(NCCN1CCOCC1)c1ccc2nonc2c1` is 145 to 148 °C

The reported melting point of the compound `CCOC(=O)c1ccc(N)c(C(CCNC(=O)OC(C)(C)C)=NOC(C)=O)c1` was 130 to 135 °C
